Target: hERG channel (IKr) (Homo sapiens, UniProt Q12809)
Construct: expressed in transfected cells; host or cells: CHO cells
Sequence (Q12809 whole entry): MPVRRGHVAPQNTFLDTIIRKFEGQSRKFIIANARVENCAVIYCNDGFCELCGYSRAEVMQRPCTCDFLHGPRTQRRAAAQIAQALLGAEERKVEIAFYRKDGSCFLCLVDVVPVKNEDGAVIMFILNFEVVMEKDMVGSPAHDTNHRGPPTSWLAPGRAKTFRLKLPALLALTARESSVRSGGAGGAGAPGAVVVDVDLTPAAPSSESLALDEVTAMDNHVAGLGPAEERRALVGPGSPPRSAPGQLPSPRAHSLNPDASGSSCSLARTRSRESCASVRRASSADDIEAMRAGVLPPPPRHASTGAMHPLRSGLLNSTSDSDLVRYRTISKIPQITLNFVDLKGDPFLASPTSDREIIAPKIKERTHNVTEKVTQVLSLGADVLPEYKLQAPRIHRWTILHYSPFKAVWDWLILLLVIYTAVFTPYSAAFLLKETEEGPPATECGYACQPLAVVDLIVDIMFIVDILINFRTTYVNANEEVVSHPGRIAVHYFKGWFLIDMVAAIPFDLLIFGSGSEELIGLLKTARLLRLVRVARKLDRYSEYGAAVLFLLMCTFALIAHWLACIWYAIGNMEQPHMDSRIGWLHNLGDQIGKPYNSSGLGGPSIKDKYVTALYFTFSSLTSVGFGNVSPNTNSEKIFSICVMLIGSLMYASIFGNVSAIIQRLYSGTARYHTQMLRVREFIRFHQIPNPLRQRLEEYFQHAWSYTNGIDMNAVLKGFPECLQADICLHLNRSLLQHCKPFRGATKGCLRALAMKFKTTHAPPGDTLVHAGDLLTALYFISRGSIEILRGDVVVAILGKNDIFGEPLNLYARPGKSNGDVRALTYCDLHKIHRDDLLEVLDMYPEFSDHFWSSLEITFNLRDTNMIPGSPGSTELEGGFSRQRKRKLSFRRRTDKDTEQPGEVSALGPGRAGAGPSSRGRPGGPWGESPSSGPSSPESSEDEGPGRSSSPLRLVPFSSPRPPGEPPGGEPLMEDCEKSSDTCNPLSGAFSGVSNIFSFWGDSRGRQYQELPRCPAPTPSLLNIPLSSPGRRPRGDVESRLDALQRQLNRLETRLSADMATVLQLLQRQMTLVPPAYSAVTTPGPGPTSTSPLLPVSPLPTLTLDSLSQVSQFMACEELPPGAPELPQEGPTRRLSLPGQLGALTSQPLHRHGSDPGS
Assay details: hERG test (whole cell patch clamp, IKr)
Assay type: cell-based
Condition set: CHO cells expressing hERG channel, pH 7.4, 30 μmol/L of test compound, read-out: % inhibition of tail peak current (IKr)
Measurement kind: inhibition at 30 μmol/L (%)
One number for each entry, in %.

// worked examples, inhibition at 30 μmol/L included
*Q* Look up inhibition at 30 μmol/L for this molecule: COCC[C@@H]1C[C@@H](NC(=O)Nc2c(C)c(-c3cnc(OC)nc3)nn2-c2ccccc2)[C@H](c2ccnc(F)c2)N1C
*A* 19.3

*Q* Look up inhibition at 30 μmol/L for this molecule: COCC[C@@H]1C[C@@H](NC(=O)Nc2c(C)c(-c3cnn(C)c3)nn2-c2ccccc2)[C@H](c2ccnc(F)c2)N1C
*A* 12.8

Below: the item to evaluate.
*Q* Look up inhibition at 30 μmol/L for this molecule: COCCN1C[C@@H](NC(=O)Nc2c(C)c(-c3cnn(C)c3)nn2-c2ccccc2)[C@H](c2cnc(F)c(F)c2)C1 (racemic)
*A* 35.3

---

Target: human TrkA (Homo sapiens)
Construct: purchased Lifetechnologies PV3144
Sequence (P04629 33-796): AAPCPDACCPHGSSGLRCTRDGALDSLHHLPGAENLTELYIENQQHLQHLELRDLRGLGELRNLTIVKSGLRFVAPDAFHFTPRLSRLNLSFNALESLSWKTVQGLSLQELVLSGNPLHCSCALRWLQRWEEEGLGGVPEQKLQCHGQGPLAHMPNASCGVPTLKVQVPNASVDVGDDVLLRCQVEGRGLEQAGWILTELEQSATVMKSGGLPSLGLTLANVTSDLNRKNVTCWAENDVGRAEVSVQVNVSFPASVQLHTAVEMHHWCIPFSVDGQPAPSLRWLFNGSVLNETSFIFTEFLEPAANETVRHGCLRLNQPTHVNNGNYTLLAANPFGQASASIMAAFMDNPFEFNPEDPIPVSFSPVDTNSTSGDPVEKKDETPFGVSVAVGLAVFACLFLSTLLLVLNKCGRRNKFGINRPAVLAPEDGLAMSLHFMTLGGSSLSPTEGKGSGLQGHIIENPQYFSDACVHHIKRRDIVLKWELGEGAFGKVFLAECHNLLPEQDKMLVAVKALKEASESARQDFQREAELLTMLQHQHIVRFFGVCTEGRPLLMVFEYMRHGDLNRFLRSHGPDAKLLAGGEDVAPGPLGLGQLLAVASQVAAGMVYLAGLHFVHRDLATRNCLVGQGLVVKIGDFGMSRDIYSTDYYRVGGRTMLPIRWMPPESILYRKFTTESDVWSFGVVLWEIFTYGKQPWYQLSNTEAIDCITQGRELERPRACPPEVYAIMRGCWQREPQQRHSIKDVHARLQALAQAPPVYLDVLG
Assay details: Human TrkA inhibition assay
Format: biochemical
Condition set: human TrkA phosphorylation inhibition, ATP 500 μmol/L; read-out: IC50 value
// assign class 1 if IC50 falls strictly below 1 nM, else class 0 (ties count as class 0)

*Q* hey, is IC50 for COCC[C@@H]1C[C@@H](NC(=O)Nc2c(C)c(-c3cnc(C)nc3)nn2-c2ccccc2)[C@H](c2ccnc(F)c2)N1C lower than 1 nM or not?
*A* class 1

*Q* hey, is IC50 for CCN1CCC(NC(=O)c2ccc(-c3nn(-c4ccccc4)c(NC(=O)N[C@@H]4C[C@@H](CCOC)C[C@H]4c4ccccc4)c3C)cc2)CC1 lower than 1 nM or not?
*A* class 1

*Q* hey, is IC50 for COCC[C@@H]1C[C@@H](NC(=O)Nc2c(C)c(-c3cnc(OC)nc3)nn2-c2ccccc2)[C@H](c2ccnc(F)c2)N1C lower than 1 nM or not?
*A* class 1

*Q* hey, is IC50 for COCCN1C[C@@H](NC(=O)Nc2c(C)c(-c3cnc4c(c3)oc(=O)n4C)nn2-c2ccccc2)[C@H](c2ccccc2)C1 (racemic) lower than 1 nM or not?
*A* class 0

*Q* hey, is IC50 for COCCN1C[C@@H](NC(=O)Nc2c(C)c(-c3ccnc(C(=O)NOC)c3)nn2-c2ccccc2)[C@H](c2ccccc2)C1 (racemic) lower than 1 nM or not?
*A* class 0

Now consider the entry below.
*Q* hey, is IC50 for COCCN1C[C@@H](NC(=O)Nc2cc(-c3cnc4c(cnn4C)c3)nn2C)[C@H](c2ccc(F)c(F)c2)C1 lower than 1 nM or not?
*A* class 0

---

Task for the reader: assign each of the following molecules its reported pIC50.
Target: human TrkA (Homo sapiens)
Construct: purchased Lifetechnologies PV3144
Assay details: Human TrkA inhibition assay
Assay type: biochemical
Condition set: human TrkA phosphorylation inhibition, ATP 500 μmol/L; read-out: IC50_nM
pIC50: −log10 of the molar value.

Give pIC50 for all molecules that follow.
1. CCNC(=O)c1cc(-c2nn(-c3ccccc3)c(NC(=O)N[C@@H]3CN(CCOC)C[C@H]3c3ccccc3)c2C)ccn1 (racemic)
2. CCN1CCC(NC(=O)c2ccc(-c3nn(-c4ccccc4)c(NC(=O)N[C@@H]4C[C@@H](CCOC)N(C)[C@H]4c4ccc(F)c(F)c4)c3C)cc2)CC1

*A*
1: > 7.00; 2: > 7.00

Give pIC50 for all molecules that follow.
1. COCCN1C[C@@H](NC(=O)Nc2c(C)c(-c3cnc4c(c3)c(CO)nn4C)nn2-c2ccccc2)[C@H](c2ccccc2)C1 (racemic)
2. COCCN1C[C@@H](NC(=O)Nc2c(C)c(-c3ccnc(C(=O)NC4CCCCC4)c3)nn2-c2ccccc2)[C@H](c2ccccc2)C1 (racemic)
3. COCCN1C[C@@H](NC(=O)Nc2c(C)c(-c3cnc(OC)c(C(=O)NC4CS(=O)(=O)C4)c3)nn2-c2ccccc2)[C@H](c2ccccc2)C1 (racemic)
4. COCCN1C[C@@H](NC(=O)Nc2c(C)c(-c3cnn(C)c3)nn2-c2ccccc2)[C@H](c2cnc(Cl)c(F)c2)C1 (racemic)

*A*
> 7.00
> 7.00
> 7.00
> 7.00
